Recorded IC50 by entry
target: human Syk (GST-Syk) (Homo sapiens, UniProt P43405); construct: A cDNA fragment encoding human Syk openreading frame was cloned; made in house; host or cells: Sf21 insect cells (baculovirus, transfer vector pAcG2T); test: Syk tyrosine kinase inhibitory assay; type: biochemical; settings: in vitro; compounds as yielded by solid phase synthesis, purity about 40 to 90%; read-out: Activity grade (IC50 class)

- INPUT SMILES: "COc1cc(-c2cc3nccn3c(Nc3ccccc3C(N)=O)n2)ccc1N1CCOCC1"
  IC50: "< 500 nM"
- INPUT SMILES: "C=CCSc1nc(-c2ccc(OC)c(OC)c2)cc2nccn12"
  IC50: "< 500 nM"
- INPUT SMILES: "COc1ccc(-c2cc3nccn3c(Nc3ccccc3F)n2)cc1OC"
  IC50: "< 500 nM"
- INPUT SMILES: "COc1ccc(-c2cc3nccn3c(Sc3ccc(CCCC(=O)O)cc3)n2)cc1OC"
  IC50: "2000 to 10000 nM"

Exercise: Any idea what IC50 came out for COc1ccc(-c2cc3nccn3c(Nc3ccc(C)cc3)n2)cc1OC on human Syk (GST-Syk) (Homo sapiens, UniProt P43405)?
Key: < 500 nM

Exercise: Form: Entry = CCSc1nc(-c2ccc3cc(OC)ccc3c2)cc2nccn12 | System = human Syk (GST-Syk) (Homo sapiens, UniProt P43405) | IC50 = ____
Key: 2000 to 10000 nM
